# Tested on: Enterococcus faecalis
# TEST: Antimicrobial activity against Enterococcus faecalis ATCC 51299 over-expressing vanB
# Type: functional
Would you mind telling me the reported MIC of each entry?
Phrase the answer as number then unit, nothing more needed.

The reported MIC of the compound CC(=O)N[C@H]1[C@H](O[C@@H]2c3ccc(c(Cl)c3)Oc3cc4cc(c3O)Oc3ccc(cc3Cl)C[C@H]3NC(=O)[C@H](n5cc6ccccc6c5S[C@@H]5O[C@H](CO)[C@@H](O)[C@H](O)[C@H]5O)c5ccc(O)c(c5)Oc5cc(O)cc(c5)[C@H](NC3=O)C(=O)N[C@H]4C(=O)N[C@H]3C(=O)N[C@@H]2C(=O)N[C@H](C(=O)O)c2cc(O)cc(O)c2-c2cc3ccc2O)O[C@H](CO)[C@@H](O)[C@@H]1O was 1 µg/mL

The reported MIC of the compound CC(=O)N[C@H]1[C@H](O[C@@H]2c3ccc(c(Cl)c3)Oc3cc4cc(c3O)Oc3ccc(cc3Cl)C[C@H]3NC(=O)[C@H](n5cc6ccccc6c5Sc5nc6ccccc6s5)c5ccc(O)c(c5)Oc5cc(O)cc(c5)[C@H](NC3=O)C(=O)N[C@H]4C(=O)N[C@H]3C(=O)N[C@@H]2C(=O)N[C@H](C(=O)O)c2cc(O)cc(O)c2-c2cc3ccc2O)O[C@H](CO)[C@@H](O)[C@@H]1O was 0.0625 µg/mL

The reported MIC of the compound CC(=O)N[C@H]1[C@H](O[C@@H]2c3ccc(c(Cl)c3)Oc3cc4cc(c3O)Oc3ccc(cc3Cl)C[C@H]3NC(=O)[C@H](n5cc6cc7ccccc7cc6c5Sc5ccccc5)c5ccc(O)c(c5)Oc5cc(O)cc(c5)[C@H](NC3=O)C(=O)N[C@H]4C(=O)N[C@H]3C(=O)N[C@@H]2C(=O)N[C@H](C(=O)O)c2cc(O)cc(O)c2-c2cc3ccc2O)O[C@H](CO)[C@@H](O)[C@@H]1O was 2 µg/mL

The reported MIC of the compound CC(=O)N[C@@H]1[C@H](Oc2c3cc4cc2Oc2ccc(cc2Cl)[C@@H](O[C@@H]2O[C@@H](CO)[C@@H](O)[C@H](O)[C@@H]2NC(C)=O)[C@@H]2NC(=O)[C@H](NC(=O)[C@@H]4NC(=O)[C@H]4NC(=O)[C@@H](Cc5ccc(c(Cl)c5)O3)NC(=O)[C@H](N)c3ccc(O)c(c3)Oc3cc(O)cc4c3)c3ccc(O)c(c3)-c3c(O[C@H]4O[C@H](CO)[C@@H](O)[C@@H](O)[C@@H]4O)cc(O)cc3[C@@H](C(=O)O)NC2=O)O[C@@H](CO)[C@@H](O)[C@@H]1O was 4 µg/mL

The reported MIC of the compound CC(=O)N[C@H]1[C@H](O[C@@H]2c3ccc(c(Cl)c3)Oc3cc4cc(c3O)Oc3ccc(cc3Cl)C[C@H]3NC(=O)[C@H](n5cc6ccccc6c5S[C@@H]5O[C@H](COC(C)=O)[C@@H](OC(C)=O)[C@H](OC(C)=O)[C@H]5OC(C)=O)c5ccc(O)c(c5)Oc5cc(O)cc(c5)[C@H](NC3=O)C(=O)N[C@H]4C(=O)N[C@H]3C(=O)N[C@@H]2C(=O)N[C@H](C(=O)O)c2cc(O)cc(O)c2-c2cc3ccc2O)O[C@H](CO)[C@@H](O)[C@@H]1O was 4 µg/mL

The reported MIC of the compound CC(=O)N[C@H]1[C@H](O[C@@H]2c3ccc(c(Cl)c3)Oc3cc4cc(c3O)Oc3ccc(cc3Cl)C[C@H]3NC(=O)[C@H](n5cc6cc7ccccc7cc6c5Sc5ncccn5)c5ccc(O)c(c5)Oc5cc(O)cc(c5)[C@H](NC3=O)C(=O)N[C@H]4C(=O)N[C@H]3C(=O)N[C@@H]2C(=O)N[C@H](C(=O)O)c2cc(O)cc(O)c2-c2cc3ccc2O)O[C@H](CO)[C@@H](O)[C@@H]1O was 1 µg/mL

The reported MIC of the compound CC(=O)N[C@H]1[C@H](O[C@@H]2c3ccc(c(Cl)c3)Oc3cc4cc(c3O)Oc3ccc(cc3Cl)C[C@H]3NC(=O)[C@H](n5cc6ccccc6c5Sc5ncccn5)c5ccc(O)c(c5)Oc5cc(O)cc(c5)[C@H](NC3=O)C(=O)N[C@H]4C(=O)N[C@H]3C(=O)N[C@@H]2C(=O)N[C@H](C(=O)O)c2cc(O)cc(O)c2-c2cc3ccc2O)O[C@H](CO)[C@@H](O)[C@@H]1O was 1 µg/mL

The reported MIC of the compound CC(=O)N[C@H]1[C@H](O[C@@H]2c3ccc(c(Cl)c3)Oc3cc4cc(c3O)Oc3ccc(cc3Cl)C[C@H]3NC(=O)[C@H](n5cc6cc7ccccc7cc6c5Sc5nc6ccccc6s5)c5ccc(O)c(c5)Oc5cc(O)cc(c5)[C@H](NC3=O)C(=O)N[C@H]4C(=O)N[C@H]3C(=O)N[C@@H]2C(=O)N[C@H](C(=O)O)c2cc(O)cc(O)c2-c2cc3ccc2O)O[C@H](CO)[C@@H](O)[C@@H]1O was 1 µg/mL

The reported MIC of the compound CC(=O)N[C@@H]1[C@@H](OC(C)=O)[C@H](OC(C)=O)[C@@H](COC(C)=O)O[C@H]1Sc1c2ccccc2cn1[C@H]1C(=O)N[C@@H]2Cc3ccc(c(Cl)c3)Oc3cc4cc(c3O)Oc3ccc(cc3Cl)[C@@H](O[C@@H]3O[C@H](CO)[C@@H](O)[C@H](O)[C@H]3NC(C)=O)[C@@H]3NC(=O)[C@H](NC(=O)[C@@H]4NC(=O)[C@@H](NC2=O)c2cc(O)cc(c2)Oc2cc1ccc2O)c1ccc(O)c(c1)-c1c(O)cc(O)cc1[C@@H](C(=O)O)NC3=O was 2 µg/mL

The reported MIC of the compound CC(=O)N[C@H]1[C@H](O[C@@H]2c3ccc(c(Cl)c3)Oc3cc4cc(c3O)Oc3ccc(cc3Cl)C[C@H]3NC(=O)[C@H](n5cc6ccccc6c5Sc5ccccc5)c5ccc(O)c(c5)Oc5cc(O)cc(c5)[C@H](NC3=O)C(=O)N[C@H]4C(=O)N[C@H]3C(=O)N[C@@H]2C(=O)N[C@H](C(=O)O)c2cc(O)cc(O)c2-c2cc3ccc2O)O[C@H](CO)[C@@H](O)[C@@H]1O was 2 µg/mL

The reported MIC of the compound CC(=O)N[C@@H]1[C@@H](O)[C@H](O)[C@@H](CO)O[C@H]1Sc1c2ccccc2cn1[C@H]1C(=O)N[C@@H]2Cc3ccc(c(Cl)c3)Oc3cc4cc(c3O)Oc3ccc(cc3Cl)[C@@H](O[C@@H]3O[C@H](CO)[C@@H](O)[C@H](O)[C@H]3NC(C)=O)[C@@H]3NC(=O)[C@H](NC(=O)[C@@H]4NC(=O)[C@@H](NC2=O)c2cc(O)cc(c2)Oc2cc1ccc2O)c1ccc(O)c(c1)-c1c(O)cc(O)cc1[C@@H](C(=O)O)NC3=O was 4 µg/mL
